Target: 5-HT2c (Homo sapiens, UniProt P28335)
Construct: purchased Euroscreen/BioSignal Packard Inc
Sequence (P28335 33-458): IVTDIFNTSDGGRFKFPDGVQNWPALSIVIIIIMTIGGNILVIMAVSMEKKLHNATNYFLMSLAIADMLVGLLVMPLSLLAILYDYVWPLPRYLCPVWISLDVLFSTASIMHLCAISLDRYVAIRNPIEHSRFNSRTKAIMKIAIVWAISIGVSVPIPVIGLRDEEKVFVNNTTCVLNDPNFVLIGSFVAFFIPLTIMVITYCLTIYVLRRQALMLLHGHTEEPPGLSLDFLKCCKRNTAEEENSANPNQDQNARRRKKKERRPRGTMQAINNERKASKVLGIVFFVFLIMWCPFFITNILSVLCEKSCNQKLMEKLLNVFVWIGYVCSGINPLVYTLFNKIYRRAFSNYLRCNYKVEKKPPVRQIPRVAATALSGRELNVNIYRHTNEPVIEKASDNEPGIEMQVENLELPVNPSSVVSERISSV
Experiment: Radioligand binding, 5-HT2c ([3H]Mesulergine)
Details: read-out: Binding affinity (Inhibition rate % at 10 μM) 5HT2c

COMPOUND: CC1(c2ccccc2)C(=O)Nc2cc(Cl)cc(Cl)c2C1=O (stereo not drawn)
inhibition at 10 µM [%]: 18.3
--
COMPOUND: CC1(c2ccccc2)C(=O)Nc2c(Br)cc(Br)cc2C1=O (stereo not drawn)
inhibition at 10 µM [%]: 16.8
--
COMPOUND: CC1(c2ccccc2)C(=O)Nc2cc(Cl)c(Cl)cc2C1=O (stereo not drawn)
inhibition at 10 µM [%]: 30.4
--
COMPOUND: COc1cc(Cl)c2c(c1)NC(=O)C(C)(c1ccc(Br)cc1)C2=O (stereo not drawn)
inhibition at 10 µM [%]: 20
--
COMPOUND: COc1ccc(NS(=O)(=O)c2sc3ccc(Cl)cc3c2C)cc1N1CCNCC1 [SB-271046, reference compound]
inhibition at 10 µM [%]: 64.3
--
COMPOUND: CN1CCN(c2cc(Cl)c3c(c2)NC(=O)C(C)(c2ccc(N)cc2)C3=O)CC1 (stereo not drawn)
inhibition at 10 µM [%]: 2.5
--
COMPOUND: COc1cc(Br)c2c(c1)NC(=O)C(C)(c1ccccc1)C2=O (stereo not drawn)
inhibition at 10 µM [%]: 30.3
--
COMPOUND: CC1(c2ccc(N)cc2)C(=O)Nc2cc(Cl)cc(Cl)c2C1=O (stereo not drawn)
inhibition at 10 µM [%]: 15.6
--
COMPOUND: CC1(c2ccc(O)c([N+](=O)[O-])c2)C(=O)Nc2cc(Cl)cc(Cl)c2C1=O (stereo not drawn)
inhibition at 10 µM [%]: 2.5

* * *

In this section, each of the molecules is paired with its reported inhibition at 10 µM.
Biological target: 5-HT2a (Homo sapiens, UniProt P28223)
Construct: purchased Euroscreen/BioSignal Packard Inc
Sequence (P28223 whole entry): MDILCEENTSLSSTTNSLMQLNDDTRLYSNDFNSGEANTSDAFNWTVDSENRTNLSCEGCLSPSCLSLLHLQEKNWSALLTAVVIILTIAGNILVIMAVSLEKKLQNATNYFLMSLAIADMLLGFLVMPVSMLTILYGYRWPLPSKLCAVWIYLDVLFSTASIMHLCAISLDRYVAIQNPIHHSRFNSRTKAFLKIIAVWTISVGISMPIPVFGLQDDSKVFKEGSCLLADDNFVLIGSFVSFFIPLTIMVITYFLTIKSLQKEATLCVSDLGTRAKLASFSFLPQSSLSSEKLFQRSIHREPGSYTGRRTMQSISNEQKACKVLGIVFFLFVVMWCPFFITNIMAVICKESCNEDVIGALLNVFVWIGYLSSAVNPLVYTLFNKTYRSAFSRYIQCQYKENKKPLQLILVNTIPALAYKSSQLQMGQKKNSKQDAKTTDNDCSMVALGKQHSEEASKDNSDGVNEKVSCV
Assay: Radioligand binding, 5-HT2a ([3H]Ketanserin)
Conditions: read-out: Binding affinity (Inhibition rate % at 10 μM) 5HT2a
MEASURED_QUANTITY: inhibition at 10 µM (%)

MOLECULE: CC1(c2ccc(Br)cc2)C(=O)Nc2cc(Cl)cc(Cl)c2C1=O (stereo not shown)
QUANTITATIVE_RESULT: 16.9
//
MOLECULE: CC1(c2ccc([N+](=O)[O-])cc2)C(=O)Nc2cc(Cl)c(Cl)cc2C1=O (stereo not shown)
QUANTITATIVE_RESULT: 13.2
//
MOLECULE: CCN(CC)c1ccc(C2(C)C(=O)Nc3cc(Cl)cc(Cl)c3C2=O)cc1 (stereo not shown)
QUANTITATIVE_RESULT: 16.9
//
MOLECULE: C[C@H](NC(=O)Nc1cccc([C@]2(C)C(=O)Nc3cc(Cl)cc(Cl)c3C2=O)c1)c1ccccc1
QUANTITATIVE_RESULT: 58.5

* * *

Target: hD2L receptor (Homo sapiens)
Construct: purchased BioSignal Packard Inc., Montreal, Canada
Sequence (P14416 whole entry): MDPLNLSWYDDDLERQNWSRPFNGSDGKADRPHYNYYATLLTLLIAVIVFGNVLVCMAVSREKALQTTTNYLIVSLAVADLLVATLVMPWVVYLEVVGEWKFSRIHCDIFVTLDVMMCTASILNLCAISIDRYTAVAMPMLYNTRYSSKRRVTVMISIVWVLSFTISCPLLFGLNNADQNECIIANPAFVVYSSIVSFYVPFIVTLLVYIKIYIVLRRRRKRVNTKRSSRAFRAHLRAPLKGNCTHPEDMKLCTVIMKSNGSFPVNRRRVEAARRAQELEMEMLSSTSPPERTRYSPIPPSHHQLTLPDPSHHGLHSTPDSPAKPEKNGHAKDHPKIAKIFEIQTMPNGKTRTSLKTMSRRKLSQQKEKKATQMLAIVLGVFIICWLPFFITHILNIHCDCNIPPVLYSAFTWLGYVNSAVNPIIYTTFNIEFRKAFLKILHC
Experiment: Radioligand binding, dopamine D2 ([3H]spiperone)
Conditions: read-out: Binding affinity (Inhibition rate % at 10 μM) D2
In this section, each of the compounds is paired with its reported inhibition at 10 µM.
MEASURED_QUANTITY: inhibition at 10 µM

COMPOUND: CC1(c2ccccc2)C(=O)Nc2cc(Cl)cc(Cl)c2C1=O (stereo not drawn)
MEASURED_QUANTITY: inhibition at 10 µM
RESULT: 1.6%
//
COMPOUND: CC1(c2ccccc2)C(=O)Nc2ccccc2C1=O (stereo not drawn)
MEASURED_QUANTITY: inhibition at 10 µM
RESULT: 5.6%
//
COMPOUND: CNc1ccc(C2(C)C(=O)Nc3cc(Cl)cc(Cl)c3C2=O)cc1 (stereo not drawn)
MEASURED_QUANTITY: inhibition at 10 µM
RESULT: 19.8%
//
COMPOUND: CC1(c2ccc(O)cc2)C(=O)Nc2cc(Cl)cc(Cl)c2C1=O (stereo not drawn)
MEASURED_QUANTITY: inhibition at 10 µM
RESULT: 35.2%
//
COMPOUND: CC1(c2ccccc2)C(=O)Nc2cc(Cl)ccc2C1=O (stereo not drawn)
MEASURED_QUANTITY: inhibition at 10 µM
RESULT: 4.9%
//
COMPOUND: CC1(c2ccc(N)cc2)C(=O)Nc2cc(Cl)ccc2C1=O (stereo not drawn)
MEASURED_QUANTITY: inhibition at 10 µM
RESULT: 16.5%
//
COMPOUND: CC1(c2ccc(O)cc2)C(=O)Nc2ccccc2C1=O (stereo not drawn)
MEASURED_QUANTITY: inhibition at 10 µM
RESULT: 17.3%
//
COMPOUND: CC1(c2ccc(OCc3ccccc3)c(Br)c2)C(=O)Nc2cc(Cl)cc(Cl)c2C1=O (stereo not drawn)
MEASURED_QUANTITY: inhibition at 10 µM
RESULT: 9.6%
//
COMPOUND: CC1(c2ccccc2)C(=O)Nc2cc(Br)cc(Br)c2C1=O (stereo not drawn)
MEASURED_QUANTITY: inhibition at 10 µM
RESULT: 3%

* * *

Molecular target: 5-HT2a (Homo sapiens, UniProt P28223)
Construct: purchased Euroscreen/BioSignal Packard Inc
Test: Radioligand binding, 5-HT2a ([3H]Ketanserin)
Settings: read-out: Binding affinity (Inhibition rate % at 10 μM) 5HT2a
In this section, each of the compounds is paired with its reported inhibition at 10 µM.
MEASURED_QUANTITY: inhibition at 10 µM (%)

COMPOUND: CC1(c2ccc(I)cc2)C(=O)Nc2cc(Cl)cc(Cl)c2C1=O (centres unmarked) [Example 16]
QUANTITATIVE_RESULT: 47.2
--
COMPOUND: CN1CCN(c2ccc3c(c2)NC(=O)C(C)(c2ccc([N+](=O)[O-])cc2)C3=O)CC1 (centres unmarked) [Example 51]
QUANTITATIVE_RESULT: 26.4
--
COMPOUND: CC1(c2ccccc2)C(=O)Nc2c(Br)cc(Br)cc2C1=O (centres unmarked) [Example 10]
QUANTITATIVE_RESULT: 29.5
--
COMPOUND: CC1(c2ccc(O)c([N+](=O)[O-])c2)C(=O)Nc2cc(Cl)cc(Cl)c2C1=O (centres unmarked) [Example 22]
QUANTITATIVE_RESULT: 50.9
--
COMPOUND: C[C@H](NC(=O)Nc1cccc([C@@]2(C)C(=O)Nc3cc(Cl)cc(Cl)c3C2=O)c1)c1ccccc1 [Example 43]
QUANTITATIVE_RESULT: 21.3
--
COMPOUND: CN1CCN(c2cc(Cl)c3c(c2)NC(=O)C(C)(c2ccc(O)cc2)C3=O)CC1 (centres unmarked) [Example 47]
QUANTITATIVE_RESULT: 42.8
--
COMPOUND: CNc1ccc(C2(C)C(=O)Nc3cc(Cl)cc(Cl)c3C2=O)cc1 (centres unmarked) [Example 39]
QUANTITATIVE_RESULT: 12.1
--
COMPOUND: CC1(c2ccc(Br)cc2Br)C(=O)Nc2cc(Cl)ccc2C1=O (centres unmarked) [Example 45]
QUANTITATIVE_RESULT: 23

* * *

Target: 5-HT2a (Homo sapiens)
Construct: purchased Euroscreen/BioSignal Packard Inc
Test: Radioligand binding, 5-HT2a ([3H]Ketanserin)
Conditions: read-out: Binding affinity (Inhibition rate % at 10 μM) 5HT2a
Classification by inhibition at 10 µM | ranges: low (below 20%), moderate (20% to below 40%), high (40% or more)

COMPOUND: CN1CCN(c2cc(Cl)c3c(c2)NC(=O)C(C)(c2ccc(N)cc2)C3=O)CC1 (stereo not drawn) [Example 48]
LABEL_VALUE: moderate

COMPOUND: CC1(c2ccc([N+](=O)[O-])cc2)C(=O)Nc2cc(Cl)ccc2C1=O (stereo not drawn) [Example 37]
LABEL_VALUE: high

COMPOUND: C[C@H](NC(=O)Oc1cccc(C2(C)C(=O)Nc3cc(Cl)cc(Cl)c3C2=O)c1)c1ccccc1 (stereo partly drawn) [Example 26]
LABEL_VALUE: moderate

COMPOUND: CC1(c2ccccc2)C(=O)Nc2cc(Cl)ccc2C1=O (stereo not drawn) [Example 3]
LABEL_VALUE: low

COMPOUND: COc1cc(Cl)c2c(c1)NC(=O)C(C)(c1ccc(Br)cc1)C2=O (stereo not drawn) [Example 52]
LABEL_VALUE: moderate

COMPOUND: CC1(c2ccc(O)c(O)c2)C(=O)Nc2ccccc2C1=O (stereo not drawn) [Example 32]
LABEL_VALUE: moderate

COMPOUND: CC1(c2ccc([N+](=O)[O-])cc2)C(=O)Nc2cc(Cl)cc(Cl)c2C1=O (stereo not drawn) [Example 14]
LABEL_VALUE: high

COMPOUND: COc1ccc(C2(C)C(=O)Nc3c(Br)cc(Br)cc3C2=O)cc1[N+](=O)[O-] (stereo not drawn) [Example 28]
LABEL_VALUE: low

COMPOUND: COc1ccc(C2(C)C(=O)Nc3cc(OC)cc(Cl)c3C2=O)cc1 (stereo not drawn) [Example 35]
LABEL_VALUE: moderate

These data points were gathered from patent US7592457B2.
